A collection of compounds and their measured CDK17/Y Inhibition at 10µM (%)
- Study target: CDK17/Cyclin Y (Homo sapiens, UniProt Q00537)
- Sequence (Q00537 whole entry): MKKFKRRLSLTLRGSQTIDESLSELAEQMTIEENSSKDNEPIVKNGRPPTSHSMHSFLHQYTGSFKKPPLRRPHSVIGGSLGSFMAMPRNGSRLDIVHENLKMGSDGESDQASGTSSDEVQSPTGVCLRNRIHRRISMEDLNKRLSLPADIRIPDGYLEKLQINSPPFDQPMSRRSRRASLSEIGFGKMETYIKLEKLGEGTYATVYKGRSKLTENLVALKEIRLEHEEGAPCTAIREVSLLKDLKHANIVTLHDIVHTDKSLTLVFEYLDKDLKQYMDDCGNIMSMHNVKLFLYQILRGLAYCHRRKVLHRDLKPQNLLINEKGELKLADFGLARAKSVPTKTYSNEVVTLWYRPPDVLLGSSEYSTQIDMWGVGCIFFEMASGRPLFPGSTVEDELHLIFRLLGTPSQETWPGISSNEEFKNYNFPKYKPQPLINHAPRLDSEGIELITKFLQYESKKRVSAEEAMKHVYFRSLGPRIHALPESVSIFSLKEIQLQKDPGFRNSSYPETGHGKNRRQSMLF
- Sequence (Q8ND76 whole entry partner): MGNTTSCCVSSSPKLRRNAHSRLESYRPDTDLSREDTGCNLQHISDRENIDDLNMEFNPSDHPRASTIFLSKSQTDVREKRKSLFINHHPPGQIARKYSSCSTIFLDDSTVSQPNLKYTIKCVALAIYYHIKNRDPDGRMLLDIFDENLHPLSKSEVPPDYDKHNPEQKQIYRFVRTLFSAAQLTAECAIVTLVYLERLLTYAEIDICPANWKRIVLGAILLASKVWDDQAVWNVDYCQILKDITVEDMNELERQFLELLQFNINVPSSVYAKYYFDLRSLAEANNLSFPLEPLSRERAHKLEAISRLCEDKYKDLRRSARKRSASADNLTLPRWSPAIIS
- Assay protocol: NanoBRET live-cell target engagement, CDK17-NanoLuc/Cyclin Y in HEK-293
- Type: binding
- Test context: 10µM; independent experiment 1
Answer in %, number only, no unit symbol.

Completed entries (count: 2):
compound="Cc1c(Br)c(Br)c2c3c1nc(N1CCNCC1)n3CCC2.Cl [SEL 120-34A]" property_name="CDK17/Y Inhibition at 10µM (%)" result_number=45.5
compound=O=C1NC(=NCc2cccs2)S/C1=C\c1ccc2ncccc2c1 property_name="CDK17/Y Inhibition at 10µM (%)" result_number=13.8

Query block: Using known records, supply CDK17/Y Inhibition at 10µM (%) for CN(C)C/C=C/C(=O)Nc1ccc(C(=O)Nc2cccc(Nc3ncc(Cl)c(-c4c[nH]c5ccccc45)n3)c2)cc1
Result block: 73.0

Query block: Using known records, supply CDK17/Y Inhibition at 10µM (%) for O=C1NCCc2[nH]c(-c3ccncc3)cc21
Result block: 31.6
